# TESTED_SYSTEM: human TAAR1 receptor (Homo sapiens, UniProt Q96RJ0)
# Sequence (Q96RJ0 1-339): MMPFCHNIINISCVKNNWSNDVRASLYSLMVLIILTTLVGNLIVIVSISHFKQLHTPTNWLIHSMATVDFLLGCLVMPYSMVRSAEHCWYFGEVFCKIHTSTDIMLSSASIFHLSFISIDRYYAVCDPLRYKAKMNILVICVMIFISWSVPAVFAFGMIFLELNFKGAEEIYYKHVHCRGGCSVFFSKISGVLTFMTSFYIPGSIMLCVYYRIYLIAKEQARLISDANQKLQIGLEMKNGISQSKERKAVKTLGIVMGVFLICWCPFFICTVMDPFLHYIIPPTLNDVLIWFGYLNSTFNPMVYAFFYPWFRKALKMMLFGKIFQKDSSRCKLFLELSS
# PROCEDURE_TEXT: TAAR1 cAMP Biosensor Assay
# ASSAY_CONDITIONS: TAAR1 cAMP accumulation, agonist dose response, mucate salts
# Source text: To measure interactions with TAAR1, cell line stably expressing a recombinant human TAAR1 receptor were studied in the cAMP Biosensor Assay (DiscoveRx, Freemont, Calif.) since TAAR1 is coupled to G-proteins that signal through cAMP. […] The cAMP Hunter cell line expressing human TAAR1 was expanded from freezer stocks according to standard procedures. […] Microplates were read following signal generation with a PerkinElmer Envision™ instrument for chemiluminescent signal detection. […]
Below is a list of entries, each paired with its recorded EC50 value.
Enter your answer as a number in µM; do not include the unit.

{"MOLECULE": "CN[C@@H](C)CCC=C(C)C (single isomer, unassigned) [Isometheptene Mucate Isomer 1]", "UNIT_OF_MEASURE": "µM", "EC50": 21.1}

Next molecule, EC50 to be filled in.
Which EC50 is reported for this molecule? O=C(O)[C@@H](O)[C@H](O)[C@H](O)[C@@H](O)C(=O)O (single isomer, unassigned) [Isometheptene Mucate Isomer 2] 29.5

----------
Listed here: compounds with reported Ki for Sigma-1 receptor (Homo sapiens).
State just the number; it will be interpreted in µM.

{"COMPOUND": "CN[C@@H](C)CCC=C(C)C (single isomer, unassigned) [Isomer 1]", "Ki, µM": 2.1}

Alright, here's another compound for you.
# get_value(readout= Ki, system= Sigma-1 receptor (Homo sapiens)) for CNC(C)CCC=C(C)C (single isomer, unassigned) [Isomer 2] 1.9

----------
# TESTED_SYSTEM: Imidazoline 1 (I1) receptor
# PROCEDURE_TEXT: Imidazoline I1 receptor radioligand binding assay
# ASSAY_CONDITIONS: Imidazoline-1 (I1), equilibrium binding
Overview of reported Ki across a group of compounds:
Reply numerically in µM, unit not repeated.

# query: Ki of entry CN[C@@H](C)CCC=C(C)C (single isomer, unassigned) [Isomer 1] 1.1

Any idea what its Ki is? The compound is CNC(C)CCC=C(C)C (single isomer, unassigned) [Isomer 2] 0.018

----------
# TESTED_SYSTEM: α2B-adrenergic receptor (Homo sapiens, UniProt P18089)
# Sequence (P18089 1-450): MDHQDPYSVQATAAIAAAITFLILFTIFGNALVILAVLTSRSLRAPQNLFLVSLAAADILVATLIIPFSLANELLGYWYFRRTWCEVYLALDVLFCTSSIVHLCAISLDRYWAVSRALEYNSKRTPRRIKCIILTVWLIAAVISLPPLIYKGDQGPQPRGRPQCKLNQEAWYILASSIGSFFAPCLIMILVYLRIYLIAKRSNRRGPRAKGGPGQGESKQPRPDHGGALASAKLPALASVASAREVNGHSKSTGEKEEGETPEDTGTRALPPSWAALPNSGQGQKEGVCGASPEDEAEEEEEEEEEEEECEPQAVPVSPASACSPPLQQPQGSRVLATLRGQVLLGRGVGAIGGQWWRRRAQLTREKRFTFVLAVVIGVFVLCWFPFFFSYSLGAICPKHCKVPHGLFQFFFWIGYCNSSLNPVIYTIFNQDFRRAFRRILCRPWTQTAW
PROPERTY_NAME: pKi
FYI, pKi means -log10 of a concentration in mol per litre.

{"COMPOUND": "CN[C@@H](C)CCC=C(C)C (single isomer, unassigned) [Isomer 1]", "RECORDED_MEASUREMENT": 5.57}

Next item in the queue.
Give the measured pKi of CNC(C)CCC=C(C)C (single isomer, unassigned) [Isomer 2] . 5.64
